Attribution: patent US10160726B2

Tested on: P. aeruginosa NB52023 (efflux deficient K1542, ΔmexX ΔmexB)
Assay: microbe, parasite or virus in culture
Format: cell-based
Conditions: Pseudomonas aeruginosa, 20 h, read-out: Antibacterial activity (MIC) NB52023
Structures can show the parent of a compound that is named as a salt.
I'd appreciate it if you marked entries Yes when MIC is lower than 8 µg/mL and No when it is not.

[[record]]
compound = "Cc1c(N2CC[C@@H]([C@H](C)N)C2)c(F)cc2c(C(=O)O)cc(=O)n(C3CC3)c12 [Example 33]"
measured_on = "P. aeruginosa NB52023 (efflux deficient K1542, ΔmexX ΔmexB)"
discrete_label = "No"

[[record]]
compound = "COc1cc2cc(F)c(-c3ccc(N)nc3)c(C)c2n(C2CC2)c1=O [Example 7]"
measured_on = "P. aeruginosa NB52023 (efflux deficient K1542, ΔmexX ΔmexB)"
discrete_label = "No"

[[record]]
compound = "COc1cc2ccc(-c3ccc(N)nc3)c(C)c2n(C2CC2)c1=O [Example 78, TFA salt]"
measured_on = "P. aeruginosa NB52023 (efflux deficient K1542, ΔmexX ΔmexB)"
discrete_label = "No"

[[record]]
compound = "Cc1c(N2CC3CC3(N)C2)c(F)cc2c(CN)cc(=O)n(C3CC3)c12 (stereo not shown) [Example 81.23]"
measured_on = "P. aeruginosa NB52023 (efflux deficient K1542, ΔmexX ΔmexB)"
discrete_label = "Yes"

[[record]]
compound = "COc1c(C)c(=O)n(C2CC2)c2c(C)c(-c3ccc(N)nc3)ccc12 [Example 70]"
measured_on = "P. aeruginosa NB52023 (efflux deficient K1542, ΔmexX ΔmexB)"
discrete_label = "No"

[[record]]
compound = "Cc1c(N2CC[C@@H]([C@H](C)N)C2)ccc2c(OCc3ccccc3)cc(=O)n(C3CC3)c12 [Example 71, TFA salt]"
measured_on = "P. aeruginosa NB52023 (efflux deficient K1542, ΔmexX ΔmexB)"
discrete_label = "No"

[[record]]
compound = "Cc1c(N2CCNCC2)c(F)cc2c(C#N)cc(=O)n(C3CC3)c12 [Example 32]"
measured_on = "P. aeruginosa NB52023 (efflux deficient K1542, ΔmexX ΔmexB)"
discrete_label = "No"

[[record]]
compound = "Cc1c(N2CC[C@@H]([C@H](C)N)C2)c(F)cc2c(Cl)cc(=O)n(C3CC3)c12 [Example 44]"
measured_on = "P. aeruginosa NB52023 (efflux deficient K1542, ΔmexX ΔmexB)"
discrete_label = "Yes"

[[record]]
compound = "C#Cc1cc(=O)n(C2CC2)c2c(C)c(N3CC[C@@H]([C@H](C)N)C3)c(F)cc12 [Example 25]"
measured_on = "P. aeruginosa NB52023 (efflux deficient K1542, ΔmexX ΔmexB)"
discrete_label = "Yes"

[[record]]
compound = "Cc1c(N2CC[C@@H]([C@H](C)N)C2)c(F)cc2ccc(=O)n(C3CC3)c12.Cl [Example 9.1]"
measured_on = "P. aeruginosa NB52023 (efflux deficient K1542, ΔmexX ΔmexB)"
discrete_label = "Yes"

[[record]]
compound = "Cc1c(N2CC[C@H](O)C2)c(F)cc2c(OCCN(C)C)cc(=O)n(C3CC3)c12 [Example 55]"
measured_on = "P. aeruginosa NB52023 (efflux deficient K1542, ΔmexX ΔmexB)"
discrete_label = "No"

[[record]]
compound = "Cc1c(N2CCNCC2)c(F)cc2c(CN)cc(=O)n(C3CC3)c12 [Example 81.09]"
measured_on = "P. aeruginosa NB52023 (efflux deficient K1542, ΔmexX ΔmexB)"
discrete_label = "Yes"

[[record]]
compound = "Cc1c(N2CC[C@@H]([C@H](C)N)C2)ccc2c(O)cc(=O)n(C3CC3)c12 [Example 72, TFA salt]"
measured_on = "P. aeruginosa NB52023 (efflux deficient K1542, ΔmexX ΔmexB)"
discrete_label = "No"

[[record]]
compound = "Cc1c(N2CC[C@@H]([C@H](C)N)C2)c(F)cc2c(N)cc(=O)n(C3CC3)c12 [Example 36]"
measured_on = "P. aeruginosa NB52023 (efflux deficient K1542, ΔmexX ΔmexB)"
discrete_label = "No"

